# ASSAY_TARGET: UniProt:P15056
# Sequence (P15056 whole entry, species assumed): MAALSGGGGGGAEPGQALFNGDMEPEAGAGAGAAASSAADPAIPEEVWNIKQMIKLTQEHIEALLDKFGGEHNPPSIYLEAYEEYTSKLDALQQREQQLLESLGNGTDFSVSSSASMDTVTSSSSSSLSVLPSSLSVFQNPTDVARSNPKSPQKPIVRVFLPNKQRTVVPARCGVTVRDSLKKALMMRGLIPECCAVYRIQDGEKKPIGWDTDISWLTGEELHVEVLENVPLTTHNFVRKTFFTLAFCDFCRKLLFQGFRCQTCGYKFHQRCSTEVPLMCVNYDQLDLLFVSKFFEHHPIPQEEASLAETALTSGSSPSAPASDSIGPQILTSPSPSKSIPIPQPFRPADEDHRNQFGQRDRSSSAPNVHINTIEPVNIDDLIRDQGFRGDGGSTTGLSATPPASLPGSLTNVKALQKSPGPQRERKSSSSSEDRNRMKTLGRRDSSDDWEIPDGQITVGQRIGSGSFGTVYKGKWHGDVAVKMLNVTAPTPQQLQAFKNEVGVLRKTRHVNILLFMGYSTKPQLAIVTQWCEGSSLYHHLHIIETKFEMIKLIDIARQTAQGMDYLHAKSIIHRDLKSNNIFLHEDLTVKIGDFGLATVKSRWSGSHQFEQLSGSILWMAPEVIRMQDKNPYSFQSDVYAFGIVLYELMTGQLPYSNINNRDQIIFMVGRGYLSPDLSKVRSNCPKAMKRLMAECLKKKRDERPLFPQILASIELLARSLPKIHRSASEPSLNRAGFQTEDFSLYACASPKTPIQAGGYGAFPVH
# PROCEDURE_SUMMARY: Enzyme-inhibiting activity test of kinases other than Trk (selectivity experiment): b-Raf
# Format: biochemical
# EXPERIMENTAL_SETUP: concentration of 3 μM; read-out: Inhibition rate (%) b-Raf
# Method: A test substance (the present compound) was dissolved in dimethylsulfoxide to prepare a 100-fold concentration of the test concentration, 3 μM. The solution was further diluted to 25-fold with an assay buffer (20 mM HEPES, 0.01% Triton X-100, 2 mM DTT, pH 7.5) to obtain a test substance solution. In a similar manner a positive control substance solution was prepared with a positive control substance. […]
MEASURED_PARAMETER: inhibition at 3 µM

// lookup inhibition at 3 µM | system=UniProt:P15056 | key= `Cc1ccccc1-c1ccc(C(F)(F)F)cc1NC(=O)Nc1cnc(Oc2ccc(-c3cnn4ccc(N(C)C)nc34)cc2)nc1` 41%

// lookup inhibition at 3 µM | system=UniProt:P15056 | key= `Nc1ncc(F)cc1-c1ccc(Oc2ncc(NC(=O)Nc3cc(C(F)(F)F)ccc3-c3ccccc3)cn2)cc1` 30%

// lookup inhibition at 3 µM | system=UniProt:P15056 | key= `Nc1ncc(C(F)(F)F)cc1-c1ccc(Oc2ncc(NC(=O)Nc3cc(C(F)(F)F)ccc3-n3cc(Cl)cn3)cn2)cc1` 34%

// lookup inhibition at 3 µM | system=UniProt:P15056 | key= `CCNc1ccn2ncc(-c3ccc(Oc4ncc(NC(=O)Nc5cc(C(F)(F)F)ccc5-c5cccc(C)c5)cn4)cc3)c2n1` 19%

// lookup inhibition at 3 µM | system=UniProt:P15056 | key= `Nc1ncc(F)cc1-c1ccc(Oc2ncc(NC(=O)Nc3cc(C(F)(F)F)ccc3-c3cccnc3)cn2)cc1` 45%

// lookup inhibition at 3 µM | system=UniProt:P15056 | key= `Nc1ncc(F)cc1-c1ccc(Oc2ncc(NC(=O)Nc3cc(C(F)(F)F)ccc3-n3ccnn3)cn2)cc1` 13%

// lookup inhibition at 3 µM | system=UniProt:P15056 | key= `Nc1ncc(Cl)cc1-c1ccc(Oc2ncc(NC(=O)Nc3cc(C(F)(F)F)ccc3-n3cccn3)cn2)cc1` 40%

// lookup inhibition at 3 µM | system=UniProt:P15056 | key= `CN(C)c1ccn2ncc(-c3ccc(Oc4ncc(NC(=O)Nc5cc(C(F)(F)F)ccc5-c5ccnn5C)cn4)cc3)c2n1` 49%

// lookup inhibition at 3 µM | system=UniProt:P15056 | key= `Nc1ncc(Cl)cc1-c1ccc(Oc2ncc(NC(=O)Nc3ccc(C(F)(F)F)cc3-n3cccn3)cn2)cc1` 0%

// lookup inhibition at 3 µM | system=UniProt:P15056 | key= `O=C(Nc1cnc(Oc2ccc(-c3cnn4ccc(N5CCC5)nc34)cc2)nc1)Nc1cc(C(F)(F)F)ccc1-c1cccnc1` 36%

// lookup inhibition at 3 µM | system=UniProt:P15056 | key= `Cn1nccc1-c1ccc(C(F)(F)F)cc1NC(=O)Nc1cnc(Oc2ccc(-c3cnn4ccc(N5CCC5)nc34)cc2)nc1` 30%

// lookup inhibition at 3 µM | system=UniProt:P15056 | key= `CCOc1ccc2ncc(-c3ccc(Oc4ncc(NC(=O)Nc5cc(C(F)(F)F)ccc5-c5cccnc5)cn4)cc3)n2n1` 56%

// lookup inhibition at 3 µM | system=UniProt:P15056 | key= `Nc1ncc(Cl)cc1-c1ccc(Oc2ncc(NC(=O)Nc3cc(C(F)(F)F)ccc3-n3ccc(C(F)(F)F)n3)cn2)cc1` 21%

// lookup inhibition at 3 µM | system=UniProt:P15056 | key= `Nc1ncc(Cl)cc1-c1ccc(Oc2ncc(NC(=O)Nc3ccc(C(F)(F)F)cc3Cl)cn2)cc1` 37%

// lookup inhibition at 3 µM | system=UniProt:P15056 | key= `CS(=O)(=O)c1ccc(C(F)(F)F)cc1NC(=O)Nc1cnc(Oc2ccc(-c3cc(C(F)(F)F)cnc3N)cc2)nc1` 23%
